Molecular target: CCR5 (Homo sapiens (Human), UniProt P51681)
Sequence (P51681 whole entry): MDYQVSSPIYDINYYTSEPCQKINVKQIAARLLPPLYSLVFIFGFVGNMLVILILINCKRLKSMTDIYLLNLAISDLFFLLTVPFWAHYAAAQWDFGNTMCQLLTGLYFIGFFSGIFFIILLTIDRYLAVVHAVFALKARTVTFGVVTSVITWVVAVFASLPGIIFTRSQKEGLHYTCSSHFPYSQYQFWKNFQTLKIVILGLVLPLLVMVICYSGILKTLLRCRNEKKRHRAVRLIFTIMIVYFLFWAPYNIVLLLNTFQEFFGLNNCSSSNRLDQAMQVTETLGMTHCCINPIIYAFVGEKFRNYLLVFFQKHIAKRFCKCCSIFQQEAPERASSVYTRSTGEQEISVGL
Assay: Calcium flux inhibition experiment
Format: cell-based
Settings: HEK293/CCR5-Gα16 cell line, calcium flux; read-out: CCR5 IC50
reportedProperty: pIC50
One number for each entry, as −log10 of the molar value.

Report pIC50 for each item below.
1. CNC(=O)c1ccc([C@H](CCN2C3CCC2CC(n2c(C)nnc2C(C)C)C3)NC(=O)C2CCCC2)s1 (stereo partly shown)
2. CC(=O)N[C@@H](CCN1C2CCC1CC(n1c(C)nc3c1CCN(C(C)=O)C3)C2)c1nccs1 (stereo partly shown)

Response:
[8.02, 7.77]

Report pIC50 for each item below.
1. Cc1nnc(C(C)C)n1C1CC2CCC(C1)N2CC[C@H](NC(=O)C1CCCC1)c1nccs1 (stereo partly shown)
2. CC(=O)N[C@@H](CCN1C2CCC1CC(n1c(C)nc3c1CCN(C(=O)C(C)C)C3)C2)c1cccc(F)c1 (stereo partly shown) [PF-232798, reference compound]

Response:
1: 7.79; 2: 8.08

Report pIC50 for each item below.
1. Cc1nnc(C(C)C)n1C1CC2CCC(C1)N2CC[C@H](NC(=O)Cc1nnn[nH]1)c1cccs1 (stereo partly shown)
2. Cc1nnc(C(C)C)n1C1CC2CCC(C1)N2CC[C@H](NC(=O)Cn1ncnn1)c1cccs1 (stereo partly shown)
3. CC(=O)N[C@@H](CCN1C2CCC1CC(n1c(C)nc3c1CCN(C(C)=O)C3)C2)c1ccc(Cl)s1 (stereo partly shown)

Response:
[7.83, 8.10, 7.91]

Data origin: patent US10167299B2
